tested on: NIH3T3; assay: Cytotoxic Profiling of Annotated Libraries Using Quantitative High-Throughput Screening (AID 1296008); settings: Five cell lines viability, CellTiter-Glo ATP luminescence, 48-72 h; note: nearly all actives have a fitted effect of over 60% in size
Results filed as inconclusive are left out. Calls of active or inactive are those of the source. Calls come from the whole dose curve; as a rule, active = well fitted inhibition curve with a large enough effect; inconclusive = small, poorly fitted or top-dose-only effect; inactive = flat fitted curve, though single readings scatter.
Use one of these outcomes when replying: True (active), False (inactive)

Some solved cases for reference:
1) CN(C)CCC=C1c2ccccc2COc2ccc(CC(=O)O)cc21
False
2) CCOC(=O)O[C@]1(C(=O)OCCl)CC[C@@H]2[C@H]3CCC4=CC(=O)C=C[C@]4(C)[C@@H]3[C@@H](O)C[C@@]21C
False
3) Cc1ccc([C@@H]2O[C@H](CO)[C@@H](O)[C@H](O)[C@@H]2O)cc1Cc1ccc(-c2ccc(F)cc2)s1
False

**Q:** What did the test return for CC(C)(C)c1cc(C(=O)O)c(NC(=O)Nc2ccc3[nH]ncc3c2)s1 ?
**A:** False

**Q:** Recorded test call requested for C[C@H](NC(=O)C(=O)Nc1ccccc1C(C)(C)C)C(=O)N[C@@H](CC(=O)O)C(=O)COc1c(F)c(F)cc(F)c1F
**A:** False

**Q:** Which outcome was assigned to Nc1ncnc2c1nc(Cl)n2[C@@H]1O[C@H](CO)[C@@H](O)[C@@H]1O in this test?
**A:** True

**Q:** For NC(CO)(CO)CCc1ccc(Sc2cccc(OCc3ccccc3)c2)cc1Cl , what call appears in the results of this test?
**A:** True

**Q:** Name the outcome recorded for COc1cc(O)c2c(c1)C(=O)c1cc(C)cc(O)c1C2=O in the assay.
**A:** False

**Q:** Record lookup: outcome of this test for Oc1ccc(C2=Cc3ccc(O)cc3OC2)cc1 ?
**A:** True

**Q:** Which outcome was entered for the molecule CN(C)Cc1cccc(N=C(c2ccccc2)c2c(O)[nH]c3cc(C(=O)N(C)C)ccc23)c1 in this test?
**A:** True

**Q:** Call for entry COc1cccc(-c2cc(=O)c3ccccc3o2)c1N :
**A:** False

**Q:** How was COc1ccc(-c2coc3cc(O)cc(O)c3c2=O)cc1 classified in this test?
**A:** False

**Q:** Identify the outcome logged in this assay for the molecule shown: CO[C@H]1C[C@@H]2CC[C@@H](C)[C@@](O)(O2)C(=O)C(=O)N2CCCC[C@@H]2C(=O)O[C@H]([C@H](C)C[C@@H]2CC[C@H](OCCO)[C@H](OC)C2)CC(=O)[C@H](C)C=C(C)[C@@H](O)[C@@H](OC)C(=O)[C@H](C)C[C@H](C)C=CC=CC=C1C
**A:** True

**Q:** Hi, sorry to bother you, what did the test record for CN(C)CCC(c1ccccc1)c1ccccn1 (centres undefined) ?
**A:** False

**Q:** For CNC(=O)c1ccccc1Sc1ccc2c(C=Cc3ccccn3)n[nH]c2c1 , which call appears in the assay record?
**A:** True

**Q:** Any idea what this test logged for CC(=Cc1ccccc1)C=C1SC(=S)N(CC(=O)O)C1=O ?
**A:** False
